target_desc: PknB (Mycobacterium tuberculosis)
Construct: made in house
Sequence (P9WI81 whole entry): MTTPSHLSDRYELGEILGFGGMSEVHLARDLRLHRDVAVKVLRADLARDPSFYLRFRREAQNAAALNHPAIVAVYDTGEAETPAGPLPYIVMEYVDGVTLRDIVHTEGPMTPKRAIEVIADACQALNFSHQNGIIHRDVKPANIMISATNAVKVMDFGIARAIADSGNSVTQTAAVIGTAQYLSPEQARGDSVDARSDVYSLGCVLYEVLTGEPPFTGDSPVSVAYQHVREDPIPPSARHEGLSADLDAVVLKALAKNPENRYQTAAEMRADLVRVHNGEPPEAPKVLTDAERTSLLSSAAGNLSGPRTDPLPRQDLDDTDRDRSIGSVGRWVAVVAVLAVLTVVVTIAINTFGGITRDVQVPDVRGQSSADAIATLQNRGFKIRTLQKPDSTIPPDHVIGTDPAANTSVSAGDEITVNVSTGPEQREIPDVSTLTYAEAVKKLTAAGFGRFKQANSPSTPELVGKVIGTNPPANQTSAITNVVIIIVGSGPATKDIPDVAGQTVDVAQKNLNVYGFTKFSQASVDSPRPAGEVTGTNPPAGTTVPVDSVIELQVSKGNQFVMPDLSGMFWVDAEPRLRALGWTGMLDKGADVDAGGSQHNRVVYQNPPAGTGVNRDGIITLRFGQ
test_description: biochemical
Set-up: species or system M. tuberculosis
measurement_conditions: 3 nM PknB, 6 uM GarA, 3 μM ATP, 30 min; competitive tight-binding fit; several symbols in a cell = repeat determinations; read-out: Ki Values
Assign Ki to each entry below.

NC(=O)c1ccc(-c2ncc(Cl)c(Nc3cc(C4CC4)[nH]n3)n2)s1 :: 1 to 10 nM
CC(=O)Nc1cnc(-c2ccc(S(N)(=O)=O)s2)nc1Nc1cc(C2CC2)[nH]n1 :: 50 to 100 nM

Parameter requested: Ki. Apply to each item below.
1. Cc1cnc(-c2ccc(Cl)c(C(N)=O)c2)nc1Nc1cc(C2CC2)[nH]n1
2. C#Cc1cnc(-c2ccc(C)c(C(N)=O)c2)nc1Nc1cc(C2CC2)[nH]n1
3. C#Cc1cnc(N2CC[C@H](NC(C)=O)C2)nc1Nc1cc(C2CC2)n[nH]1 (stereo in doubt)

Output:
1: 50 to 100 nM; 2: 10 to 50 nM; 3: 2000 to 4000 nM

Parameter requested: Ki. Apply to each item below.
1. O=S(=O)(c1ccc(-c2ncc(Cl)c(Nc3cc(C4CC4)[nH]n3)n2)s1)n1cccc1
2. C#Cc1c(C)nc(-c2ccc(S(N)(=O)=O)s2)nc1Nc1cc(C2CC2)[nH]n1

Output:
["10 to 50 nM", "1 to 10 nM"]

Task: What value of measured Ki is listed for C#Cc1cnc(-c2ccc(S(N)(=O)=O)s2)nc1Nc1cc(C2CC2)n[nH]1 ?
Output: 1 to 10 nM

The reported numbers originate from patent US20110053916A1.
